biological target: hNaV1.7 (Homo sapiens, UniProt Q15858); construct: expressed in transfected cells; host or cells: HEK293; experiment: QPatch NaV1.7 assay (whole-cell patch clamp, QPatch16x); type: cell-based; settings: holding voltage −90 mV (most channels closed), HEK293-hNaV1.7 cells, read-out: QP Nav1.7 −90 mV pIC50 (converted)
Sequence (Q15858 whole entry): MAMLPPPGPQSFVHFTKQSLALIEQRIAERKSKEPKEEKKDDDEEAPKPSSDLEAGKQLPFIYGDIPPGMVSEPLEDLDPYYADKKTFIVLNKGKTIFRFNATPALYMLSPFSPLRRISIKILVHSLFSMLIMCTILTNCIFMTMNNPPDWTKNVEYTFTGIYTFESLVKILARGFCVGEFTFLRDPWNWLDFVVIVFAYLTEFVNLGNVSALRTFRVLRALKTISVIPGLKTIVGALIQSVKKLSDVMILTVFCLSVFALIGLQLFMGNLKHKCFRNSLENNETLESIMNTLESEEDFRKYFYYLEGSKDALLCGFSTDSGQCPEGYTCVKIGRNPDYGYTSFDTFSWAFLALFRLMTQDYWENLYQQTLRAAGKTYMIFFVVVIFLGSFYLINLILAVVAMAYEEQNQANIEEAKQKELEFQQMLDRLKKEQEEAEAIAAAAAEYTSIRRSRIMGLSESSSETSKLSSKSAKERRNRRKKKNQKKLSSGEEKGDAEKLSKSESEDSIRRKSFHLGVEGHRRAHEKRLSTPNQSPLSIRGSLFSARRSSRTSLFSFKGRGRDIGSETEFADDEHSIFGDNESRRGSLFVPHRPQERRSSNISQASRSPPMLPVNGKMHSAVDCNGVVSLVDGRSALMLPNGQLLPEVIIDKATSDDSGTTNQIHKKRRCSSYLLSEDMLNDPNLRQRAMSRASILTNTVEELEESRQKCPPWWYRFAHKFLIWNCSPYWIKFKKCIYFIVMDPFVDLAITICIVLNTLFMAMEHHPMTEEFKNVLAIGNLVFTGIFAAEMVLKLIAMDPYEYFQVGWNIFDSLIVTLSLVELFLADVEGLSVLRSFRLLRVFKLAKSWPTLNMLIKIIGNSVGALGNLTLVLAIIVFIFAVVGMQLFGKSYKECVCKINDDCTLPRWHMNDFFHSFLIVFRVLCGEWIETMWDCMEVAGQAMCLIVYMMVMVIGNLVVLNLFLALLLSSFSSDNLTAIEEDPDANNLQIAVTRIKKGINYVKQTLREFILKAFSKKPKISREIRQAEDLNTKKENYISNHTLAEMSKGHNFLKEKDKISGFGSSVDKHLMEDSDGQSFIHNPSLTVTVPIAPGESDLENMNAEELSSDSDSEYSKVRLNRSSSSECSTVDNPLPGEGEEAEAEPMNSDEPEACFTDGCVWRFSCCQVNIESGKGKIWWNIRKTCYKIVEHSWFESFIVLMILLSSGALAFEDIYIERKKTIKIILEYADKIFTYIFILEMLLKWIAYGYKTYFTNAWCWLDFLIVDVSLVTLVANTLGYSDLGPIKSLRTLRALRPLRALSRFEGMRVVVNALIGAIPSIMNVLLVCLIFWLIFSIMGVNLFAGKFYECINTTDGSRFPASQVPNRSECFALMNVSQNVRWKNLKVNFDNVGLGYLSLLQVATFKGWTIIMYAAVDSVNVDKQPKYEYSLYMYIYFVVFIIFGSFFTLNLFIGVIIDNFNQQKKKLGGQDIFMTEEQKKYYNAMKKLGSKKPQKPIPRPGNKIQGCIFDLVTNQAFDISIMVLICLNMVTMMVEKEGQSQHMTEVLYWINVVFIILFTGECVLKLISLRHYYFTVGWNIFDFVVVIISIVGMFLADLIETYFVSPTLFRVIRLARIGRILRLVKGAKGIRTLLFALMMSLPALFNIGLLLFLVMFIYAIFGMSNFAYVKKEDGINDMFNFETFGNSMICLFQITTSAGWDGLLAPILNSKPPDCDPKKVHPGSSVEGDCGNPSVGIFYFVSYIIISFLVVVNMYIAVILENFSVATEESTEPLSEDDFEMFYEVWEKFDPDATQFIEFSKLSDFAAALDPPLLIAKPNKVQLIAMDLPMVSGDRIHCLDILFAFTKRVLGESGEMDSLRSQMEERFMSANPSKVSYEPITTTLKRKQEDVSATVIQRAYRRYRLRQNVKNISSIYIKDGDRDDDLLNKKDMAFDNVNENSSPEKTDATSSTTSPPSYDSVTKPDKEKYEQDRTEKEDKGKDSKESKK
Where a name gives a salt, the structure may show the parent alone.
parameter.measured: IC50 (µM)

System hNaV1.7 (Homo sapiens, UniProt Q15858). Read-out IC50. Item O=C1NCC[C@@]12CC[C@@H](c1cc(-c3ccc(C(F)(F)F)cc3)ccn1)N2 [Example 36, hydrochloride] . Report value. 20

System hNaV1.7 (Homo sapiens, UniProt Q15858). Read-out IC50. Item CN1CC[C@@]2(CC[C@H](c3cc(-c4cccc(Cl)c4C#N)ccn3)N2)C1=O [Example 165, hydrochloride] . Report value. 158

System hNaV1.7 (Homo sapiens, UniProt Q15858). Read-out IC50. Item Cc1cc(-c2cccc(OC(F)(F)F)c2)cc([C@@H]2CC[C@]3(CCN(C)C3=O)N2)n1 [Example 128, hydrochloride] . Report value. 20

[I] CN1CC[C@@]2(CC[C@H](c3cc(-c4cc(OCCF)ccc4F)ccn3)N2)C1=O [Example 251, hydrochloride]
[II] Cc1cc(-c2cc(C(F)(F)F)ccc2C#N)cc([C@H]2CC[C@@]3(CCN(C)C3=O)N2)n1 [Example 23, hydrochloride]
Kindly compare I with II and tell me which has the lower IC50 figure. Identify your pick by its label. I

[a] CN1CC[C@@]2(CC(F)C(c3cc(-c4ccc(C(F)(F)F)cc4)ccn3)N2)C1=O (single isomer, unassigned) [Example 239]
[b] CN1CC[C@@]2(CC[C@H](c3cc(-c4ccccc4)ccn3)N2)C1=O [Example 6, hydrochloride]
I'd appreciate it if you could identify which of a and b has the greater IC50. Identify your pick by its label. a
(a: 251 µM, b: 158 µM)

[I] CCOc1ccc(F)c(-c2cc([C@@H]3CC[C@]4(CCN(C)C4=O)N3)ncc2C)c1 [Example 139, hydrochloride]
[II] Cc1c(-c2ccc(C(F)(F)F)cc2)ccnc1[C@@H]1CC[C@@]2(CCN(C)C2=O)N1 [Example 16, hydrochloride]
Kindly compare I with II and tell me which has the lower IC50 figure. Identify your pick by its label. II
(II: 100 µM, I: 251 µM)

[A] CN1CC[C@]2(CC[C@H](c3cc(-c4ccc(C(F)(F)F)cc4)c(F)cn3)N2)C1=O [Example 61, hydrochloride]
[B] CCOc1ccc(F)c(-c2ccnc([C@H]3CC[C@@]4(CCN(C)C4=O)N3)c2)c1 [Example 8, hydrochloride]
[C] CN1CC[C@@]2(CC[C@H](c3cc(-c4ccc5c(c4)CCO5)ccn3)N2)C1=O [Example 166, hydrochloride]
[D] CC(C)Oc1ccc(-c2ccnc([C@H]3CC[C@@]4(CCN(C)C4=O)N3)c2)cc1C#N [Example 180, hydrochloride]
Could you please order the items by IC50, going from the lowest number to the highest? Please reply with the labels ordered as requested. Many thanks. B, A, D, C

====

biological target: hNaV1.7 (Homo sapiens, UniProt Q15858); construct: expressed in transfected cells; host or cells: HEK293; assay: QPatch NaV1.7 assay (whole-cell patch clamp, QPatch16x); format: cell-based; conditions: holding voltage −90 mV (most channels closed), HEK293-hNaV1.7 cells, read-out: QP Nav1.7 −90 mV pIC50 (converted)
Where a name gives a salt, the structure may show the parent alone.
parameter.measured: IC50 (µM)

[A] CN1CC[C@]2(CC[C@H](c3cc(-c4ccc(C(F)(F)F)cc4)ccn3)N2)C1=O [Example 55, hydrochloride]
[B] CCOc1cc(F)cc(-c2cc(C)nc([C@H]3CC[C@@]4(CCN(C)C4=O)N3)c2)c1 [Example 197, hydrochloride]
I'd appreciate it if you could identify which of A and B has the greater IC50. Identify your pick by its label. A
(A: 100 µM, B: 50.1 µM)

[1] CCOc1ccc(F)c(-c2cc(C)nc([C@@H]3CC[C@@]4(CCN(C)C4=O)N3)c2)c1 [Example 92, hydrochloride]
[2] CCc1cccc(-c2cc(C)nc([C@H]3CC[C@@]4(CCN(C)C4=O)N3)c2)c1F [Example 206, hydrochloride]
I'd appreciate it if you could identify which of 1 and 2 has the greater IC50. Identify your pick by its label. 2
(2: 63.1 µM, 1: 39.8 µM)
